- Test system: goosegrass
- PROTOCOL_DESCRIPTION: Test C pre-/postemergence herbicide test
- Type: in vivo, Eleusine indica
- CONDITION_DESCRIPTION: 250 g ai/ha; scale 0-100; preemergence
- Excerpt: […]
Item-by-item account of Plant response rating, Goosegrass
Keep it simple and answer with nothing but the number.

Some compounds with known Plant response rating, Goosegrass results, for comparison:
CCNC(=O)c1cccc(NC(=O)c2sc(C(C)(C)C)nc2C)c1	95
CCn1nc(C(C)(C)C)cc1C(=O)Nc1cccc(OC(F)F)c1	100
Cc1nn(C(C)(C)C)nc1C(=O)Nc1cccc(C(=O)N2CC=CC2)c1	100

Request: Given the entry CCNC(=O)c1cccc(NC(=O)c2sc(C(C)(C)C)nc2CC)n1 , report its measured Plant response rating, Goosegrass.
Response: 80

Request: Repeat with CCn1nc(C(C)(C)C)cc1C(=O)Nc1cc(C(=S)N(C)C)ccn1
Response: 100

Request: Repeat with CCc1nn(C(C)(C)C)nc1C(=O)Nc1cccc(C(=O)N(C)CC)c1
Response: 100

Request: Repeat with CCn1nc(C(C)(C)C)cc1C(=O)Nc1cc(C(=S)N(C)C)ccc1F
Response: 85

Request: Repeat with CCNC(=O)c1cccc(NC(=O)c2cc(C3(C)CC3)nn2CC)c1
Response: 100

====

- Tested on: giant foxtail
- PROTOCOL_DESCRIPTION: Test A pre-/postemergence herbicide test
- Format: in vivo, Setaria faberi
- CONDITION_DESCRIPTION: Postemergence, 500 g ai/ha; 0 to 100 scale, 0 no effect, 100 complete control
# cutoff 70 applies to Plant response rating, Foxtail, Giant; >= gives Condition met, < gives Condition not met

CCN(CC)C(=O)c1cc(NC(=O)c2cc(C(C)(C)C)nn2CC)ccc1F	Condition not met
C=Cn1nc(C(C)(C)C)cc1C(=O)Nc1cccc(C(=O)NCCCl)c1	Condition not met
CCCN1CCc2c(NC(=O)c3cc(C(C)(C)C)nn3CC)cccc2C1=O	Condition not met

Please examine the following record next.
Request: Please check the record C#CCNC(=O)c1cccc(NC(=O)c2cc(C(C)(C)C)nn2CC)c1 and state if its Plant response rating, Foxtail, Giant is at or above 70.
Response: Condition met

====

- Tested on: morningglory
- PROTOCOL_DESCRIPTION: Test B pre-/postemergence herbicide test
- Format: in vivo, Ipomoea coccinea
- CONDITION_DESCRIPTION: 125 g ai/ha; visual rating, scale 0 (no effect) to 100 (complete control); postemergence
# cutoff 10 applies to Morningglory plant response rating; >= gives fulfilled, < gives not fulfilled

CCn1nc(C(C)(C)C)cc1C(=O)Nc1cc(OCCF)ccc1F	not fulfilled
CCc1nn(C(C)(C)C)cc1C(=O)Nc1cc(C(=O)N(C)C)ccn1	fulfilled
CCn1nc(C2(C)CC2)cc1C(=O)Nc1cc(C(=O)N(C)C)ccc1F	fulfilled

Request: Please check the record CCc1nn(C2CCCC2)nc1C(=O)Nc1cccc(C(=O)N2CC=CC2)c1 and state if its Morningglory plant response rating is at or above 10.
Response: fulfilled

Request: Repeat with CCNC(=O)c1cccc(NC(=O)c2nn(C(C)(C)C)nc2C)c1
Response: fulfilled

Request: Repeat with C#CCOC(=O)c1cccc(NC(=O)c2cc(C(C)(C)C)nn2C)n1
Response: not fulfilled
